Taken from a melting point compilation (Tetko et al.; mined from patent text by program, amines drawn as free bases though some values may be those of a salt).

# reported melting point; entries follow

# count of solved cases: 3
COC(=O)C(C)Oc1ccc(COc2ccc(-n3nc(C)n(C(F)F)c3=O)c(F)c2)cc1 (stereo not drawn); 83 to 85 °C
Nc1cccc2c1-c1nc3ccccc3cc1CC2; 138 to 140 °C
CCN(CCCc1c[nH]c2c(Cl)cccc12)C1COc2c(F)ccc(C(N)=O)c2C1 (stereo not drawn); 146 to 152 °C

Quick one: melting point for CCOC(=O)c1cn(C)c2cnc3c(F)c(Cl)c(F)cc3c2c1=O ?
293 °C

Then COc1ccc2c(c1)CC(C(=O)O)CC2 (stereo not drawn) ?
119 to 122 °C

Then Nc1cc(=O)n(Cc2ccc(F)cc2)[nH]1 ?
148 °C
